species on record: Mus musculus; assay: Selectivity ratio of Ki for mouse DOR to Ki for mouse MOR

[
  {
    "smilesRecord": "CN1CC[C@]23c4c5ccc(O)c4O[C@H]2[C@@H](NC(=O)c2cccnc2)CC[C@@]3(O)[C@H]1C5",
    "Ratio Ki": 15
  },
  {
    "smilesRecord": "COc1ccc2c3c1O[C@H]1[C@@H](NC(=O)c4ccncc4)C=C[C@H]4[C@@H](C2)N(C)CC[C@@]341",
    "Ratio Ki": 10.4
  },
  {
    "smilesRecord": "CN1CC[C@]23c4c5ccc(O)c4O[C@H]2[C@@H](NC(=O)c2ccncc2)CC[C@H]3[C@H]1C5",
    "Ratio Ki": 53.2
  },
  {
    "smilesRecord": "CN1CC[C@]23c4c5ccc(O)c4O[C@H]2[C@@H](NC(=O)c2cccnc2)C=C[C@H]3[C@H]1C5",
    "Ratio Ki": 27.5
  },
  {
    "smilesRecord": "CN1CC[C@]23c4c5ccc(O)c4O[C@H]2[C@@H](NC(=O)c2ccncc2)C=C[C@H]3[C@H]1C5",
    "Ratio Ki": 32.5
  },
  {
    "smilesRecord": "CN1CC[C@]23c4c5ccc(O)c4O[C@H]2[C@@H](NC(=O)c2ccncc2)CC[C@@]3(O)[C@H]1C5",
    "Ratio Ki": 24.7
  },
  {
    "smilesRecord": "CN1CC[C@]23c4c5ccc(O)c4O[C@H]2[C@@H](NC(=O)c2cccnc2)CC[C@H]3[C@H]1C5",
    "Ratio Ki": 39.6
  }
]
